- Tested on: human sphingosine-1-phosphate 1 receptor (S1P1 receptor) (Homo sapiens, UniProt P21453)
- Sequence (P21453 whole entry): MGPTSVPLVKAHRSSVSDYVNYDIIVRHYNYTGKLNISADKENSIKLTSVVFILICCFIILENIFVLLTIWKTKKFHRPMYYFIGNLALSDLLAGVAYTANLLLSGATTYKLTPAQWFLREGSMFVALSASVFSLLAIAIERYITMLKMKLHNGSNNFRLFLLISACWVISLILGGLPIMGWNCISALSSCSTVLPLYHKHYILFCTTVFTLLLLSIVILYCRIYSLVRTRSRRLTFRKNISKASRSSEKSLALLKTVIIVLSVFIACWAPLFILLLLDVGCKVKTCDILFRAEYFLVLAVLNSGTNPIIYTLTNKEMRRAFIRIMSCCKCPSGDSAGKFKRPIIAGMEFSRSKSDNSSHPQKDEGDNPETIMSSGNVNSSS
- Measurement description: Ca2+ inducing ability (calcium increase, Calcium 5 assay kit) in CHO cells overexpressing human S1P1 receptor
pEC50: −log10 of the molar value.
If the reported pEC50 equals or exceeds 8, assign y. If not, assign n.

Smiles entry: CC(C)n1nc(Cl)c2cc(COc3ccc4c(c3)OCC(CN(C)CC(=O)O)=C4)ccc21
Label: y

Can CCCn1nc(Cl)c2cc(COc3ccc4c(c3)OCC(CN3CC(C(=O)O)C3)=C4)ccc21 be said to have pEC50 at or above 8?
n

State whether the measured pEC50 reaches 8, counting equality as reaching it, for O=C(O)C1CCN(CC2=Cc3c(F)cc(OCc4ccc5c(c4)c(Cl)nn5C4CCCC4)cc3OC2)CC1
n
